assay: Cell toxicity LC50 in HEK-293 cells; type: cell-based; details: human
Measure: CC50 (mM)
Answers are plain numbers, in mM.

Sample NC[C@@H]1O[C@H](O[C@H]2[C@@H](O)[C@H](O[C@@H]3[C@@H](O)[C@H](N)C[C@H](N)[C@H]3O[C@H]3O[C@H](CO)[C@@H](O)[C@H](O)[C@H]3N)O[C@@H]2CO)[C@H](N)[C@@H](O)[C@@H]1O [Paromomycin, reference compound] — what was its CC50?
4.1

====

assay: Cell toxicity LC50 in HFF cells; type: cell-based; details: human, HFF (human foreskin fibroblast) cells; Table 2; read-out: Cell toxicity LC50 HFF
Measure: CC50 (mM)
One number for each entry, in mM.

Compound	Measure	Data value
C[C@@H](O)C1O[C@H](O[C@@H]2C(N)C[C@@H](NC(=O)[C@@H](O)CCN)[C@@H](O)C2O[C@@H]2O[C@H](CN)[C@H](O)C2O)[C@@H](N)C(O)[C@@H]1O (stereo partly drawn) [NB84, reference compound]	CC50	16.3
C[C@@H](O)C1O[C@H](O[C@@H]2C(N)C[C@@H](N)[C@@H](O)C2O[C@@H]2O[C@H](CN)[C@H](O)C2O)[C@@H](N)C(O)[C@@H]1O (stereo partly drawn) [NB74, reference compound]	CC50	21.3

Read the next record carefully.
Sample C[C@H](N)[C@H]1O[C@@H](OC2C(O)[C@H](N)CC(N)[C@H]2O[C@H]2OC([C@@H](C)O)[C@@H](O)C(O)C2N)C(O)C1O (stereo partly drawn) — what was its CC50?
4.75

====

Hi there, I'd appreciate the recorded pIC50 for every entry that follows.
molecular target: Eukaryotic system (eukaryotic cytoplasmic ribosome); assay: Eukaryotic translation inhibition, coupled transcription/translation, luciferase detection; type: biochemical; settings: Table 2; read-out: Translation Inhibition Eukaryotic System IC50
Numbers only, as −log10 of the molar value.

In the examples that follow, each entry is paired with its recorded pIC50.
Molecule	Data value
C[C@@H](O)C1O[C@H](O[C@@H]2C(N)C[C@@H](N)C(O)[C@H]2O[C@@H]2O[C@H]([C@@H](C)N)[C@H](O)C2O)C(N)[C@@H](O)[C@@H]1O (stereo partly drawn) [NB125]	5.10
CC(N)C1OC(OC2C(O)C(NC(=O)C(O)CCN)CC(N)C2OC2OC(C(C)O)C(O)C(O)C2N)C(O)C1O (stereo not drawn) [NB127]	6.14

Sample C[C@@H](N)[C@H]1O[C@@H](O[C@@H]2[C@@H](O)[C@H](NC(=O)[C@@H](O)CCN)C[C@H](N)[C@H]2O[C@H]2O[C@H]([C@@H](C)O)[C@@H](O)[C@H](O)[C@H]2N)[C@H](O)[C@@H]1O [NB128] — what was its pIC50?
6.05

====

target: Eukaryotic system (eukaryotic cytoplasmic ribosome); assay: Eukaryotic translation inhibition, coupled transcription/translation, luciferase detection; type: biochemical; conditions: Table 3; read-out: Translation Inhibition IC50^Euk
Assign labels as follows, please: true (1) for IC50 below 5 µM; false (0) for IC50 equal to or exceeding 5 µM.

Molecule	Category
NC[C@H]1O[C@@H](O[C@@H]2C(O)[C@H](N)CC(N)[C@H]2O[C@H]2OC(CO)[C@@H](O)[C@H](O)C2N)C(O)[C@H]1O (some centres unmarked) [NB30, reference compound]	false (0)

I'd appreciate it if you could check whether NC[C@@H]1O[C@H](O[C@H]2[C@@H](O)[C@H](O[C@@H]3[C@@H](O)[C@H](N)C[C@H](N)[C@H]3O[C@H]3O[C@H](CO)[C@@H](O)[C@H](O)[C@H]3N)O[C@@H]2CO)[C@H](N)[C@@H](O)[C@@H]1O [Paromomycin, reference compound] has IC50 smaller than 5 µM.
false (0)

I'd appreciate it if you could check whether CC(N)C1OC(OC2C(O)C(NC(=O)C(O)CCN)CC(N)C2OC2OC(C(C)O)C(O)C(O)C2N)C(O)C1O (centres unmarked) [NB127] has IC50 smaller than 5 µM.
true (1)

I'd appreciate it if you could check whether C[C@H](N)[C@H]1O[C@@H](OC2C(O)[C@H](NC(=O)[C@@H](O)CCN)CC(N)[C@H]2O[C@H]2OC(CO)[C@@H](O)C(O)C2N)C(O)C1O (some centres unmarked) [NB122] has IC50 smaller than 5 µM.
false (0)

I'd appreciate it if you could check whether C[C@H](N)[C@H]1O[C@@H](OC2C(O)[C@H](N)CC(N)[C@H]2O[C@H]2OC(CO)[C@@H](O)C(O)C2N)C(O)C1O (some centres unmarked) [NB118] has IC50 smaller than 5 µM.
false (0)
